# Test system: L. acidophilus NCFM
# PROTOCOL: RNA-seq transcriptional analysis of L. acidophilus NCFM growing on plant glycosides
# Assay type: cell-based, Lactobacillus acidophilus
# APPLIED_CONDITIONS: LBA1632 NAD-dependent aldehyde dehydrogenase, COG C
Form field: Transcripts per million (rpm) (one value per entry).
EXPERIMENTAL_ENDPOINT: Transcripts per million (rpm)

INSERT INTO results (smiles_repr, test_result) VALUES
  ('OC[C@H]1O[C@@H](O[C@H]2[C@H](O)[C@@H](O)[C@@H](O)O[C@@H]2CO)[C@H](O)[C@@H](O)[C@H]1O', 253.3),
  ('O=c1ccc2cc(O[C@@H]3O[C@H](CO)[C@@H](O)[C@H](O)[C@H]3O)c(O)cc2o1', 730.5),
  ('OCc1ccccc1O[C@@H]1O[C@H](CO)[C@@H](O)[C@H](O)[C@H]1O', 300.2),
  ('N#C[C@H](O[C@@H]1O[C@H](CO[C@@H]2O[C@H](CO)[C@@H](O)[C@H](O)[C@H]2O)[C@@H](O)[C@H](O)[C@H]1O)c1ccccc1', 1223.3);
